Tested on: KRAS patient-derived spheroids with HUVEC/MSC, viability
Experiment: Anticancer human tumor 519858-162-T-J1-PDC patient-derived colon adenocarcinoma cell line growth inhibition [KRAS2]
Conditions: curve of first compound; second compound 0.316 µM
pIC50: −log10 of the molar value.
RECORDED METRIC: pIC50

Some entries whose results are on file:
- COMPOUND: "CC(C)n1nc(-c2ccc3oc(N)nc3c2)c2c(N)ncnc21 + CC1OCC2(CCN(c3cnc(Sc4ccnc(N)c4Cl)c(N)n3)CC2)C1N"
  TESTED TARGET: "KRAS patient-derived spheroids with HUVEC/MSC, viability"
  pIC50: "< 7.00"
- COMPOUND: "CC(=O)Nc1cccc(-n2c(=O)n(C3CC3)c(=O)c3c(Nc4ccc(I)cc4F)n(C)c(=O)c(C)c32)c1 + CNCc1ccccc1-c1csc(C(C)Nc2nc(C)nc3cc(OC)c(OC)cc23)c1"
  TESTED TARGET: "KRAS patient-derived spheroids with HUVEC/MSC, viability"
  pIC50: 8.86
- COMPOUND: "CC1(C)CCC(CN2CCN(c3ccc(C(=O)NS(=O)(=O)c4ccc(NCC5CCOCC5)c([N+](=O)[O-])c4)c(Oc4cnc5[nH]ccc5c4)c3)CC2)=C(c2ccc(Cl)cc2)C1 + CNCc1ccccc1-c1csc(C(C)Nc2nc(C)nc3cc(OC)c(OC)cc23)c1"
  TESTED TARGET: "KRAS patient-derived spheroids with HUVEC/MSC, viability"
  pIC50: "< 5.00"
- COMPOUND: "CC(=O)OC12COC1CC(O)C1(C)C(=O)C(O)C3=C(C)C(OC(=O)C(O)C(NC(=O)OC(C)(C)C)c4ccccc4)CC(O)(C(OC(=O)c4ccccc4)C21)C3(C)C (stereo not given) + COc1cc2nc(C)nc(NC(C)c3cc(N)cc(C(F)(F)F)c3)c2cc1OC1CCOC1"
  TESTED TARGET: "KRAS patient-derived spheroids with HUVEC/MSC, viability"
  pIC50: "< 5.50"

Req: Value wanted: pIC50 (KRAS patient-derived spheroids with HUVEC/MSC, viability) of entry CC(C)NCC(C(=O)N1CCN(c2ncnc3c2C(C)CC3O)CC1)c1ccc(Cl)cc1 (stereo not given) + C=CC(=O)N1CCN(c2nc(=O)n(-c3c(C)ccnc3C(C)C)c3nc(-c4c(O)cccc4F)c(F)cc23)C(C)C1
Resp: < 5.00

###

System: KRAS patient-derived spheroids with HUVEC/MSC, viability
Test: Anticancer human tumor 519858-162-T-J1-PDC cell line growth inhibition [KRAS2];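 further: compound exposure lasted seven days before readout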;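 on viability, T/C: 100% = DMSO vehicle control viability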
Conditions: second compound 0.316 µM; first compound 0.316 µM; stronger effect = lower value
Reported viability, T/C is given for each of the following compounds.

- COMPOUND: "CCN1CCN(Cc2ccc(Nc3ncc(F)c(-c4cc(F)c5nc(C)n(C(C)C)c5c4)n3)nc2)CC1 + C=CC(=O)N1CCN(c2nc(=O)n(-c3c(C)ccnc3C(C)C)c3nc(-c4c(O)cccc4F)c(F)cc23)C(C)C1"
  TESTED TARGET: "KRAS patient-derived spheroids with HUVEC/MSC, viability"
  viability, T/C: "66%"
- COMPOUND: "CC(=O)OC12COC1CC(O)C1(C)C(=O)C(O)C3=C(C)C(OC(=O)C(O)C(NC(=O)OC(C)(C)C)c4ccccc4)CC(O)(C(OC(=O)c4ccccc4)C21)C3(C)C (stereo not given) + CC1OCC2(CCN(c3cnc(Sc4ccnc(N)c4Cl)c(N)n3)CC2)C1N"
  TESTED TARGET: "KRAS patient-derived spheroids with HUVEC/MSC, viability"
  viability, T/C: "55.5%"
- COMPOUND: "COc1cc2nccc(Oc3ccc(NC(=O)C4(C(=O)Nc5ccc(F)cc5)CC4)cc3)c2cc1OC + COc1cc2nc(C)nc(NC(C)c3cc(N)cc(C(F)(F)F)c3)c2cc1OC1CCOC1"
  TESTED TARGET: "KRAS patient-derived spheroids with HUVEC/MSC, viability"
  viability, T/C: "72.5%"

Req: Which viability, T/C reading was recorded for the compound CCN1CCN(Cc2ccc(Nc3ncc(F)c(-c4cc(F)c5nc(C)n(C(C)C)c5c4)n3)nc2)CC1 + CNCc1ccccc1-c1csc(C(C)Nc2nc(C)nc3cc(OC)c(OC)cc23)c1 ?
Resp: 48.1%

Req: Which viability, T/C reading was recorded for the compound COc1cc(Nc2ncc3c(n2)-c2ccc(Cl)cc2C(c2c(F)cccc2OC)=NC3)ccc1C(=O)O + COc1cc2nc(C)nc(NC(C)c3cc(N)cc(C(F)(F)F)c3)c2cc1OC1CCOC1 ?
Resp: 62.2%
